Experiment: in vivo
Conditions: rat, in vivo, iv, 0.5 mg/kg
QUANTITY NAME: clearance (mL/min/kg)

Please review the entries below; each comes with its answer.
molecule="Cn1cc(C#Cc2cc3c4c(c2)CCN4C(=O)C(NC(=O)c2ncn(Cc4cc(F)ccc4F)n2)CC3)cn1 (stereo not drawn)" quantity_name=clearance reported=1.6
molecule="C#Cc1cc2c3c(c1)CCN3C(=O)C(NC(=O)c1ncn(Cc3c(F)cccc3F)n1)CC2 (stereo not drawn)" quantity_name=clearance reported=15.2
molecule="O=C(NC1CCc2cc(C#Cc3cnn(C(F)F)c3)cc3c2N(CC3)C1=O)c1ncn(Cc2cc(F)ccc2F)n1 (stereo not drawn)" quantity_name=clearance reported=12.2
molecule="O=C(NC1CCc2cc(C#Cc3cnn(C(F)F)c3)cc3c2N(CC3)C1=O)c1ncn(Cc2ccccc2F)n1 (stereo not drawn)" quantity_name=clearance reported=12.8

(P) Cn1cc(C#Cc2cc3c4c(c2)CCN4C(=O)C(NC(=O)c2ncn(Cc4c(F)cccc4F)n2)CC3)cn1 (stereo not drawn)
(Q) Cn1cc(C#Cc2cc3c4c(c2)CCN4C(=O)C(NC(=O)c2ncn(Cc4ccc(F)c(F)c4)n2)CC3)cn1 (stereo not drawn)
-- ask Compare P and Q and name the one whose reported clearance is smaller. Write the label of whichever entry you select.
-- reply Q
